Cited source: paper PMC11544713

# Method Summary: Acute intervention: nutrikinetics of plasma metabolites after ingestion of L. citriodora extract (untargeted HPLC-ESI-QTOF-MS)
# Measurement Setup: 8 h after L. citriodora extract
Recorded mean chromatographic area in plasma, T8, one value per entry.

INSERT INTO assay_data (molecule, reported_property, reported_result) VALUES
  ('COc1cc(CCCO)ccc1OC1OC(CO)C(O)C(O)C1O (single isomer, unassigned; isomer 2) [dihydroconiferin isomer 2, dihydroconiferin]', 'mean chromatographic area in plasma, T8', 0),
  ('C=C(C)[C@@H]1[C@H]2OC(=O)[C@@H]1[C@]1(O)C[C@H]3O[C@]34C(=O)O[C@H]2[C@]14C', 'mean chromatographic area in plasma, T8', 0),
  ('COc1cc(C(=O)O)ccc1OS(=O)(=O)O [vanillic acid 4-O-sulfate isomer 1, vanillic acid 4-O-sulfate]', 'mean chromatographic area in plasma, T8', 588);

Request: Data request, read-out mean chromatographic area in plasma, T8, for CC1=CC(=O)CC(C)(C)C1(O)/C=C/C(C)=C/COC1OC(CO)C(O)C(O)C1O (single isomer, unassigned; isomer 1) [abscisic alcohol 11-glucoside isomer 1, abscisic alcohol 11-glucoside]
Response: 0

Request: Try this molecule too: COc1cc(CCCO)ccc1OC1OC(CO)C(O)C(O)C1O (single isomer, unassigned; isomer 1) [dihydroconiferin isomer 1, dihydroconiferin]
Response: 0

###

Recorded mean chromatographic area in plasma, T4, one value per entry.
# Method Summary: Acute intervention: nutrikinetics of plasma metabolites after ingestion of O. europaea extract (untargeted HPLC-ESI-QTOF-MS)
# Measurement Setup: 4 h after O. europaea extract
Where a name gives a salt, the structure may show the parent alone.
Answer as a number with no unit attached.

Example entries begin here.
INSERT INTO measurements (compound, reported_result) VALUES
  ('Oc1cc(O)c2c(c1)O[C@H](c1ccc(O)c(O)c1)[C@H](O)[C@H]2SCc1ccccc1 [4β-benzylthioepicatechin]', 50),
  ('COc1cc(CCO)ccc1OS(=O)(=O)O [homovanillyl alcohol sulfate]', 61);

Request: Data request, read-out mean chromatographic area in plasma, T4, for COc1cc(C(=O)O)ccc1OS(=O)(=O)O [vanillic acid 4-O-sulfate isomer 1, vanillic acid 4-O-sulfate]
Response: 279

###

Recorded mean chromatographic area in plasma, T0.5, one value per entry.
# Method Summary: Acute intervention: nutrikinetics of plasma metabolites after ingestion of L. citriodora extract (untargeted HPLC-ESI-QTOF-MS)
# Measurement Setup: 0.5 h after L. citriodora extract
Answer as a number with no unit attached.

Example entries begin here.
INSERT INTO results (compound, reported_result) VALUES
  ('CC1=CC(=O)CC(C)(C)C1(O)/C=C/C(C)=C/COC1OC(CO)C(O)C(O)C1O (single isomer, unassigned; isomer 1) [abscisic alcohol 11-glucoside isomer 1, abscisic alcohol 11-glucoside]', 50),
  ('CC(C)=C1CC2(C)C(=CC1=O)CCC(OC1OC(CO)C(O)C(O)C1O)C2C (centres unmarked) [isopetasoside]', 95),
  ('C=C(C)[C@@H]1[C@H]2OC(=O)[C@@H]1[C@]1(O)C[C@H]3O[C@]34C(=O)O[C@H]2[C@]14C', 32),
  ('CC1=CC(=O)CC(C)(C)C1(O)/C=C/C(C)=C/COC1OC(CO)C(O)C(O)C1O (single isomer, unassigned; isomer 2) [abscisic alcohol 11-glucoside isomer 2, abscisic alcohol 11-glucoside]', 111),
  ('COc1cc(CCCO)ccc1OC1OC(CO)C(O)C(O)C1O (single isomer, unassigned; isomer 2) [dihydroconiferin isomer 2, dihydroconiferin]', 34);

Now for another entry.
Request: Data request, read-out mean chromatographic area in plasma, T0.5, for COc1cc(C(=O)O)ccc1OS(=O)(=O)O [vanillic acid 4-O-sulfate isomer 1, vanillic acid 4-O-sulfate]
Response: 0
